system: Human immunodeficiency virus type 1 protease (Human immunodeficiency virus 1)
assayOverview: Binding affinity to HIV-protease
endpointLabel: Ki

I would be grateful if you could share the reported Ki for "O=C1N(CC#Cc2cc3ccccc3cn2)[C@H](Cc2ccccc2)[C@H](O)[C@@H](O)[C@@H](Cc2ccccc2)N1CC#Cc1cc2ccccc2cn1" .
≥ 1000 nM

# query: Ki of entry "C#CCN1C(=O)N(CC#C)[C@H](Cc2ccccc2)[C@@H]2OC(C)(C)O[C@H]2[C@H]1Cc1ccccc1"
22 nM

Which value of Ki has been reported for "CC1(C)O[C@@H]2[C@@H](O1)[C@@H](Cc1ccccc1)N(CC#Cc1ccsc1)C(=O)N(CC#Cc1ccsc1)[C@@H]2Cc1ccccc1" in the records?
≥ 1000 nM

Requested field: Ki. Item: "CC(C)(C)OC(=O)n1cc(C#CCN2C(=O)N(CC#Cc3cnn(C(=O)OC(C)(C)C)c3)[C@H](Cc3ccccc3)[C@@H]3OC(C)(C)O[C@H]3[C@H]2Cc2ccccc2)cn1"
≥ 1000 nM

Given the entry "O=C1N(CC#Cc2cncnc2)[C@H](Cc2ccccc2)[C@H](O)[C@@H](O)[C@@H](Cc2ccccc2)N1CC#Cc1cncnc1" , report its measured Ki.
≥ 1000 nM

Need Ki, item "CC1(C)O[C@@H]2[C@@H](O1)[C@@H](Cc1ccccc1)N(CC#Cc1cn[nH]c1)C(=O)N(CC#Cc1cn[nH]c1)[C@@H]2Cc1ccccc1"
≥ 1000 nM
